test system: Staphylococcus aureus; assay: Kirby-Bauer disk diffusion growth inhibition, Staphylococcus aureus; type: cell-based; settings: Example 35; 50 μg applied to 10 mm disk in DMSO
quantity_kind: Zone of inhibition (mm) against S. aureus
Give bare numbers, in mm.

Hey, quick one: what's Zone of inhibition (mm) against S. aureus for each of these?
1. C=C(C)[C@@H]1CC[C@]2(C)CC[C@]3(C)[C@H](CC[C@@H]4[C@@]5(C)CCC(=O)C(C)(C)[C@@H]5CC[C@]43C)[C@@H]12
2. C=C(C)[C@@H]1CC[C@]2(C)CC[C@]3(C)[C@H](CC[C@@H]4[C@@]5(C)CCC(N)C(C)(C)[C@@H]5CC[C@]43C)[C@@H]12 (stereo partly shown)
3. C=C(C)[C@@H]1CC[C@]2(C)CC[C@]3(C)[C@H](CC[C@@H]4[C@@]5(C)CCC(=NO)C(C)(C)[C@@H]5CC[C@]43C)[C@@H]12
4. C=C(C)[C@@H]1CC[C@]2(C)CC[C@]3(C)[C@H](CC[C@@H]4[C@@]5(C)C=C(O)C(=O)C(C)(C)[C@@H]5CC[C@]43C)[C@@H]12

Result:
[1.25, 0.3, 0.4, 0.85]

----------
test system: Bacillus subtilis; assay: Kirby-Bauer disk diffusion growth inhibition, Bacillus subtilis; assay type: cell-based; details: 10 mg/ml in DMSO, 100 μl on 10 mm disk, 18 hours 37° C.
quantity_kind: Zone of inhibition Bacillus subtilis (mm)
Answers are plain numbers, in mm.

Here's what some known entries look like.
molecule	unit_of_measurement	Zone of inhibition Bacillus subtilis
C=C(C)[C@@H]1CC[C@]2(COC(=O)/C=C\C(=O)O)CC[C@]3(C)[C@H](CC[C@@H]4[C@@]5(C)CC[C@H](OC(=O)/C=C\C(=O)O)C(C)(C)[C@@H]5CC[C@]43C)[C@@H]12 [Betulin 3,28-dimaleate, Betulin-3,28-dimaleate]	mm	0
C=C(C)[C@@H]1CC[C@]2(COC(=O)COCC(=O)O)CC[C@]3(C)[C@H](CC[C@@H]4[C@@]5(C)CC[C@H](OC(=O)COCC(=O)O)C(C)(C)[C@@H]5CC[C@]43C)[C@@H]12 [Betulin 3,28-didiglycolate, Betulin-3,28-didiglycolate]	mm	0

# evaluate next
Q: Value lookup for Zone of inhibition Bacillus subtilis; key = C=C(C)[C@@H]1CC[C@]2(COC(=O)/C=C\C(=O)O)CC[C@]3(C)[C@H](CC[C@@H]4[C@@]5(C)CC[C@H](O)C(C)(C)[C@@H]5CC[C@]43C)[C@@H]12 [Betulin 28-maleate, Betulin-28-maleate]
Result: 0

----------
system: Staphylococcus aureus; test: Growth in liquid culture, optical density, S. aureus; assay type: cell-based; settings: 600 nm, 24 hours growth, test compound at 14 μg per ml; None = 0.08
Give Optical Density of S. aureus for every item shown.
Answers are plain numbers.

compound	quantity_kind	measurement
C=C(C)C1CCC2(C)CCC3(C)C(CCC4C5(C)CCC(OC(=O)CC(C)(C)C(=O)O)C(C)(C)C5CCC43C)C12 (stereo not drawn) [Lupeol-3-(3′,3′-dimethyl)succinate]	Optical Density of S. aureus	0.06
C=C(C)[C@@H]1CC[C@]2(C)CC[C@]3(C)[C@H](CC[C@@H]4[C@@]5(C)CCC(=NO)C(C)(C)[C@@H]5CC[C@]43C)[C@@H]12 [Lupenon oxime, Lupenon-3-oxime]	Optical Density of S. aureus	0.06
C=C(C)[C@@H]1CC[C@]2(C)CC[C@]3(C)[C@H](CC[C@@H]4[C@@]5(C)CCC(N)C(C)(C)[C@@H]5CC[C@]43C)[C@@H]12 (stereo partly drawn) [Lupeol-3-amine]	Optical Density of S. aureus	0.06
C=C(C)[C@@H]1CC[C@]2(C)CC[C@]3(C)[C@H](CC[C@@H]4[C@@]5(C)CC[C@H](OC(=O)CSCC(=O)O)C(C)(C)[C@@H]5CC[C@]43C)[C@@H]12 [Lupeol-3-thiodiglycolate]	Optical Density of S. aureus	0.06
C=C(C)[C@@H]1CC[C@]2(C)CC[C@]3(C)[C@H](CC[C@@H]4[C@@]5(C)CC[C@H](OP(=O)(O)O)C(C)(C)[C@@H]5CC[C@]43C)[C@@H]12 [Lupeol-3-phosphate]	Optical Density of S. aureus	0.06

Hey, quick one: what's Optical Density of S. aureus for each of these?
1. C=C(C)[C@@H]1CC[C@]2(C)CC[C@@]3(C)C(CCC4[C@@]5(C)CC[C@H](O)C(C)(C)C5CC[C@]43C)C12 (stereo partly drawn) [Lupeol]
2. C=C(C)[C@@H]1CC[C@]2(C)CC[C@]3(C)[C@H](CC[C@@H]4[C@@]5(C)CCC(=O)C(C)(C)[C@@H]5CC[C@]43C)[C@@H]12 [Lupenone]
3. C=C(C)[C@@H]1CC[C@]2(C)CC[C@]3(C)[C@H](CC[C@@H]4[C@@]5(C)C=C(O)C(=O)C(C)(C)[C@@H]5CC[C@]43C)[C@@H]12 [Lupenon-1,2-ene-2-ol]
4. C=C(C)C1CCC2(C)CCC3(C)C(CCC4C5(C)CCC(OC(=O)C=CC(=O)O)C(C)(C)C5CCC43C)C12 (stereo not drawn) [Lupeol-3-maleate]

Result:
0.06
0.04
0.04
0.06

----------
Give Zone of inhibition Staphylococcus aureus for every item shown.
tested on: Staphylococcus aureus; test: Kirby-Bauer disk diffusion growth inhibition, Staphylococcus aureus; format: cell-based; settings: 10 mg/ml in DMSO, 100 μl on 10 mm disk, 18 hours 37° C.
One number for each entry, in mm.

Hey, quick one: what's Zone of inhibition Staphylococcus aureus for each of these?
1. C=C(C)[C@@H]1CC[C@]2(COC(=O)/C=C\C(=O)O)CC[C@]3(C)[C@H](CC[C@@H]4[C@@]5(C)CC[C@H](OC(=O)/C=C\C(=O)O)C(C)(C)[C@@H]5CC[C@]43C)[C@@H]12 [Betulin 3,28-dimaleate, Betulin-3,28-dimaleate]
2. C=C(C)[C@@H]1CC[C@]2(COC(=O)/C=C\C(=O)O)CC[C@]3(C)[C@H](CC[C@@H]4[C@@]5(C)CC[C@H](O)C(C)(C)[C@@H]5CC[C@]43C)[C@@H]12 [Betulin 28-maleate, Betulin-28-maleate]

Result:
1. 11.0
2. 0

----------
Give Optical Density of E. faecalis for every item shown.
system: Enterococcus faecilis; test: Growth in liquid culture, optical density, E. faecalis; format: cell-based, Enterococcus faecalis; details: 600 nm, 24 hours growth, test compound at 14 μg per ml; None = 0.85
Answers are plain numbers.

Hey, quick one: what's Optical Density of E. faecalis for each of these?
1. C=C(C)C1CCC2(C)CCC3(C)C(CCC4C5(C)CCC(OC(=O)CC(C)(C)C(=O)O)C(C)(C)C5CCC43C)C12 (centres unmarked) [Lupeol-3-(3′,3′-dimethyl)succinate]
2. C=C(C)[C@@H]1CC[C@]2(C)CC[C@]3(C)[C@H](CC[C@@H]4[C@@]5(C)CCC(=NO)C(C)(C)[C@@H]5CC[C@]43C)[C@@H]12 [Lupenon oxime, Lupenon-3-oxime]
3. C=C(C)[C@@H]1CC[C@]2(C)CC[C@]3(C)[C@H](CC[C@@H]4[C@@]5(C)CCC(N)C(C)(C)[C@@H]5CC[C@]43C)[C@@H]12 (some centres unmarked) [Lupeol-3-amine]
4. C=C(C)[C@@H]1CC[C@]2(C)CC[C@]3(C)[C@H](CC[C@@H]4[C@@]5(C)CC[C@H](OC(=O)CSCC(=O)O)C(C)(C)[C@@H]5CC[C@]43C)[C@@H]12 [Lupeol-3-thiodiglycolate]
5. C=C(C)[C@@H]1CC[C@]2(C)CC[C@]3(C)[C@H](CC[C@@H]4[C@@]5(C)CC[C@H](OP(=O)(O)O)C(C)(C)[C@@H]5CC[C@]43C)[C@@H]12 [Lupeol-3-phosphate]

Result:
0.07
0.45
0.04
0.04
0.04

----------
test system: Enterococcus faecilis; test: Growth in liquid culture, optical density, E. faecalis; type: cell-based, Enterococcus faecalis; conditions: 600 nm, 24 hours growth, test compound at 14 μg per ml; None = 0.85
quantity_kind: Optical Density of E. faecalis
Numbers only.

molecule	target_or_test_system	Optical Density of E. faecalis
C=C(C)C1CCC2(C)CCC3(C)C(CCC4C5(C)CCC(OC(=O)C=CC(=O)O)C(C)(C)C5CCC43C)C12 (stereo not shown) [Lupeol-3-maleate]	Enterococcus faecilis	0.03

Hey, quick one: what's Optical Density of E. faecalis for each of these?
1. C=C(C)[C@@H]1CC[C@]2(C)CC[C@]3(C)[C@H](CC[C@@H]4[C@@]5(C)CCC(=O)C(C)(C)[C@@H]5CC[C@]43C)[C@@H]12
2. C=C(C)[C@@H]1CC[C@]2(C)CC[C@]3(C)[C@H](CC[C@@H]4[C@@]5(C)C=C(O)C(=O)C(C)(C)[C@@H]5CC[C@]43C)[C@@H]12
3. C=C(C)[C@@H]1CC[C@]2(C)CC[C@@]3(C)C(CCC4[C@@]5(C)CC[C@H](O)C(C)(C)C5CC[C@]43C)C12 (stereo partly shown)

Result:
0.04
0.01
0.03
